Overview of reported binding signal across a group of binders:
Molecular target: T1, UNK ZnF1-6 (called full-length) (human, UniProt Q9C0B0 30-357)
T1 sequence: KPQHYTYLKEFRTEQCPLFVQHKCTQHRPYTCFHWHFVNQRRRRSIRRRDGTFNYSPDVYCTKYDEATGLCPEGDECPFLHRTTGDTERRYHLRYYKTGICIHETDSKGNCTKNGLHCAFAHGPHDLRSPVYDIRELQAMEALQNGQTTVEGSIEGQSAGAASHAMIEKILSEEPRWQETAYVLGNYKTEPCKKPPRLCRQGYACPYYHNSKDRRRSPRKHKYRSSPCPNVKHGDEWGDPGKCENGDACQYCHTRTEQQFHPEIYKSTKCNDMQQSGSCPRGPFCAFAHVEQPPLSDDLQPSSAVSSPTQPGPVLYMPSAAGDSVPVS
Experiment: nsRBNS (natural sequence RNA bind-n-seq); RBNS binding buffer (assumed for nsRBNS): 25 mM Tris pH 7.5, 150 mM KCl, 3 mM MgCl2, 0.01% Triton X-100, 500 ug/ml BSA, 20 U/ml SUPERase-In, 4 C; UNK is unkempt and MSI1 is Musashi-1; names of the RNAs are library labels; protein concentration not given here; high values mean tight binding
The full ranking holds about 5,800 sequences; the median of “enrichment r” is about 0.68, and the highest 2% start at about 11. What follows is part of a selection rich in the highest values, with near analogues and random picks from the rest.
Remember to follow the number with its unit.

The reported binding signal of the binder chr11:107429260:107429366:-|CDS|ENSG00000152404|unk|FALSE|unique (ssRNA) RNA: GGGAGUUCUACAGUCCGACGAUCGAGGAAACCCACAUAUUCAGAUAAAGCACAAAAUUGUCAAGAAAGUAGAGAAUCAGACUUAGUAAAAUAUGGUAACAGUUCAAGGGAUAGAUAUGCUACAACAGAUACUGCAAAAAAUAGCAACAGAGGAUUGAGCAUCA was 1.66 enrichment R

The reported binding signal of the binder chr4:67617988:67618115:-|3pUTR|ENSG00000033178|unk|FALSE|unique (ssRNA) RNA: GGGAGUUCUACAGUCCGACGAUCAAAUGUAGAAUGUUAAAAAUUAUUGCUAGGGUAGUCUUUUUUUUUUCCAGAAACCUAAUUAGGGUAUUAAAUUUUGUGUUUUUUUUGUUUUUUUUUUUUAAACAGAAGCAUGUUAUUUCACAACAGAGGAUUGAGCAUCA was 28.1 enrichment R

The reported binding signal of the binder chr21:44851366:44851434:-|CDS_3pUTR|ENSG00000183255|msi1_unk|total|mutant (ssRNA) RNA: GGGAGUUCUACAGUCCGACGAUCAGGACAGUCCUCUCGUCUUGCAGACUGGUGACCUUCUAUUCCCUGUUCAUCUCUGUUUCCCGAUUCCGUCACUUGAAAUAAGAAAUCUUUGGGGUUUGGGCUUUUUUAUACUCUUCUCAGCAACAGAGGAUUGAGCAUCA was 0.43 enrichment R

The reported binding signal of the binder ENSG00000168003:stop:overlap|stop_codon|ENSG00000168003|stop_codon|NA|stop_codon (ssRNA) RNA: GGGAGUUCUACAGUCCGACGAUCCUGACAUCCCAGGGGCUGUAAGUGCCAACAUGACUGUGAAGGUAAGAGUUCUAGAUGGGUAGAAACUGACCGGUGGAGGGUGGGCUGGGCUUGUAGAAGUCUGUACCCAGGGGAGCCCCUCAACAGAGGAUUGAGCAUCA was 0.906 enrichment R

The reported binding signal of the binder chr12:103777333:103777434:-|3pUTR|ENSG00000111696|msi1|total|mutant (ssRNA) RNA: GGGAGUUCUACAGUCCGACGAUCUCCUGAACAUUUACGGGCUAUGCAUUGGGAACUGCAGGGGCACAGUGAUGGGCAAAGAUCCGCUGCUUCCAGAAGGCUGAUUUCGUGGGCUCCACAAUGGUAAAACGCUGCUGUGAGUGGCAACAGAGGAUUGAGCAUCA was 0.856 enrichment R

The reported binding signal of the binder chr19:14961309:14961997:-|three_prime_utr|ENSG00000105143|control|control|control (ssRNA) RNA: GGGAGUUCUACAGUCCGACGAUCGAUUCACUUACCCACUCACCAACUCAUUCAUUCAUGUCUUUCUGGGAUGAUUUCAUCACUAGUUGACUUCCUUGUUCAUCUGUUCAUUCAUUCAUUCUUCUAUGCAUUGGUUAGUUCAUGCAACAGAGGAUUGAGCAUCA was 0.569 enrichment R

The reported binding signal of the binder chr7:123692404:123692516:-|CDS|ENSG00000106299|unk|total|mutant (ssRNA) RNA: GGGAGUUCUACAGUCCGACGAUCCCUGCCUUCUGAUGGGGACCAUCAGGUUCCAACUACUGCAGGAAACAAAGCAGCUCUUUCCGAUCAAAUCCGAGAGGGUGCUCAGCUAAAAAAAGUGGAGCAGAACAGUCGGCCAGUGUCCAACAGAGGAUUGAGCAUCA was 0.493 enrichment R
